experiment: Biodistribution and metabolism of remdesivir in rats (UHPLC-MS/MS); format: in vivo, Sprague-Dawley rats; settings: male, Sprague-Dawley, rat, in vivo, 100 mg/kg, GS-5734 100 mg/kg i.p., 6 h, average n=5, read-out: Concentration in liver
MEASURED_METRIC: concentration at 6 h

1) CCC(CC)COC(=O)[C@H](C)N[P@](=O)(OC[C@H]1O[C@@](C#N)(c2ccc3c(N)ncnn23)[C@H](O)[C@@H]1O)Oc1ccccc1 [Remdesivir, reference compound] = 13.1 ng/g

---

test: Biodistribution and metabolism of FNC in rats (UHPLC-MS/MS); settings: male, Sprague-Dawley, in vivo; rat, FNC 5 mg/kg oral, 6 h, average n=5; read-out: Concentration in kidney
MEASURED_METRIC: concentration at 6 h (ng/g)

1. [N-]=[N+]=N[C@]1(CO)O[C@@H](n2ccc(N)nc2=O)[C@@H](F)[C@@H]1O = 269

---

Assay: Biodistribution and metabolism of remdesivir in rats (UHPLC-MS/MS)
Type: in vivo, Sprague-Dawley rats
Details: male, Sprague-Dawley, rat, in vivo, 100 mg/kg, GS-5734 100 mg/kg i.p., 2 h, average n=5, read-out: Concentration in testis
Source text: 10 male Sprague-Dawley rats (250 ± 25 g) were purchased from Vital River Laboratories Co., LTD (Beijng, China). […] The standard curves of blank kidney tissue matrix, plasma matrix and PBMCs matrix were applied for quantitative analysis of GS-5734 and its metabolites. GS-5734, Nuc, Nuc-MP and Nuc-TP were quantified using their own standard curves, and the metabolites of GS-5734 (Ala-Nuc and Nuc-DP) were quantified using Nuc-MP standard curves. […]
MEASURED_METRIC: concentration at 2 h

1) CCC(CC)COC(=O)[C@H](C)N[P@](=O)(OC[C@H]1O[C@@](C#N)(c2ccc3c(N)ncnn23)[C@H](O)[C@@H]1O)Oc1ccccc1 [Remdesivir, reference compound] = 2.88 ng/g

---

assay: Biodistribution and metabolism of remdesivir in rats (UHPLC-MS/MS); assay type: in vivo, Sprague-Dawley rats; conditions: male, Sprague-Dawley, rat, in vivo, 100 mg/kg, GS-5734 100 mg/kg i.p., 6 h, average n=5, read-out: Concentration in thymus
MEASURED_METRIC: concentration at 6 h

1. CCC(CC)COC(=O)[C@H](C)N[P@](=O)(OC[C@H]1O[C@@](C#N)(c2ccc3c(N)ncnn23)[C@H](O)[C@@H]1O)Oc1ccccc1 [Remdesivir, reference compound] = 2.74 ng/g

---

assay: Biodistribution and metabolism of FNC in rats (UHPLC-MS/MS); settings: male, Sprague-Dawley, in vivo; rat, FNC 5 mg/kg oral, 12 h, average n=5; read-out: Concentration in kidney
MEASURED_METRIC: concentration at 12 h (ng/g)

1) [N-]=[N+]=N[C@]1(CO)O[C@@H](n2ccc(N)nc2=O)[C@@H](F)[C@@H]1O = 76.5

---

test: Biodistribution and metabolism of remdesivir in rats (UHPLC-MS/MS); type: in vivo, Sprague-Dawley rats; details: male, Sprague-Dawley, rat, in vivo, 100 mg/kg, GS-5734 100 mg/kg i.p., 6 h, average n=5, read-out: Concentration in brain
MEASURED_METRIC: concentration at 6 h

1) CCC(CC)COC(=O)[C@H](C)N[P@](=O)(OC[C@H]1O[C@@](C#N)(c2ccc3c(N)ncnn23)[C@H](O)[C@@H]1O)Oc1ccccc1 [Remdesivir, reference compound] = 0.78 ng/g

---

Assay: Cytotoxicity in Vero E6 cells (Cell Titer 96 Aqueous one Solution Cell Proliferation Assay)
Format: cell-based
Conditions: African green monkey, Vero E6, 48 h
Experimental: The cytotoxicity of the tested drugs in Vero E6 or Calu-3 Cells were determined by Cell Titer 96® Aqueous one Solution Cell Proliferation Assay (Promega, US). To evaluate the antiviral efficacy of the drugs, Vero E6 or Calu-3 cells were cultured overnight in 96-well plate with a density of 4 ×10^4 cells/well. Cells were pre-treated with the different doses of the indicated antivirals for 1 h. Viruses (MOI=0.05) were subsequently added to cells, followed by 1 h incubation. […]
MEASURED_METRIC: CC50 at 48 h (µM)

1. CC(C)OC(=O)[C@H](C)N[P@](=O)(OC[C@@]1(N=[N+]=[N-])O[C@@H](n2ccc(N)nc2=O)[C@@H](F)[C@@H]1O)Oc1ccccc1 = 66.2

---

assay: Biodistribution and metabolism of remdesivir in rats (UHPLC-MS/MS); format: in vivo, Sprague-Dawley rats; details: male, Sprague-Dawley, rat, in vivo, 100 mg/kg, GS-5734 100 mg/kg i.p., 6 h, average n=5, read-out: Concentration in lung
MEASURED_METRIC: concentration at 6 h (ng/g)

1) CCC(CC)COC(=O)[C@H](C)N[P@](=O)(OC[C@H]1O[C@@](C#N)(c2ccc3c(N)ncnn23)[C@H](O)[C@@H]1O)Oc1ccccc1 [Remdesivir, reference compound] = 0.87

---

experiment: Biodistribution and metabolism of remdesivir in rats (UHPLC-MS/MS); format: in vivo, Sprague-Dawley rats; conditions: male, Sprague-Dawley, rat, in vivo, 100 mg/kg, GS-5734 100 mg/kg i.p., 2 h, average n=5, read-out: Concentration in thymus
MEASURED_METRIC: concentration at 2 h (ng/g)

1) CCC(CC)COC(=O)[C@H](C)N[P@](=O)(OC[C@H]1O[C@@](C#N)(c2ccc3c(N)ncnn23)[C@H](O)[C@@H]1O)Oc1ccccc1 [Remdesivir, reference compound] = 29.9

---

assay: Biodistribution and metabolism of FNC in rats (UHPLC-MS/MS); details: male, Sprague-Dawley, in vivo; rat, FNC 5 mg/kg oral, 24 h, average n=5; read-out: Concentration in kidney
MEASURED_METRIC: concentration at 24 h (ng/g)

1) [N-]=[N+]=N[C@]1(CO)O[C@@H](n2ccc(N)nc2=O)[C@@H](F)[C@@H]1O [FNC, 2′-deoxy-2′-β-fluoro-4′-azidocytidine] = 78.1

---

tested on: SARS-CoV-2; experiment: Anti-SARS-CoV-2 assay in Calu-3 cells (qRT-PCR); type: cell-based; conditions: Severe acute respiratory syndrome coronavirus 2; Calu-3, MOI 0.05, qRT-PCR, 48 h; read-out: EC50, SARS-CoV-2 RNA replication
MEASURED_METRIC: EC50 (nM)

1. CC(C)OC(=O)[C@H](C)N[P@](=O)(OC[C@@]1(N=[N+]=[N-])O[C@@H](n2ccc(N)nc2=O)[C@@H](F)[C@@H]1O)Oc1ccccc1 = 1200

---

Concentration in epididymis for assorted compounds
assay: Biodistribution and metabolism of remdesivir in rats (UHPLC-MS/MS); format: in vivo, Sprague-Dawley rats; conditions: rat, GS-5734 100 mg/kg i.p., 2 h, average n=5
MEASURED_METRIC: Concentration in epididymis

1. N#C[C@@]1(c2ccc3c(N)ncnn23)O[C@H](COP(=O)(O)O)[C@@H](O)[C@H]1O = 6493.99 ng/g tissue
2. C[C@H](NP(=O)(O)OC[C@H]1O[C@@](C#N)(c2ccc3c(N)ncnn23)[C@H](O)[C@@H]1O)C(=O)O = 24.05 ng/g tissue
3. N#C[C@@]1(c2ccc3c(N)ncnn23)O[C@H](COP(=O)(O)OP(=O)(O)O)[C@@H](O)[C@H]1O = 33.09 ng/g tissue
4. N#C[C@@]1(c2ccc3c(N)ncnn23)O[C@H](COP(=O)(O)OP(=O)(O)OP(=O)(O)O)[C@@H](O)[C@H]1O = 486.87 ng/g tissue

---

test: Biodistribution and metabolism of remdesivir in rats (UHPLC-MS/MS); assay type: in vivo, Sprague-Dawley rats; details: male, Sprague-Dawley, rat, in vivo, 100 mg/kg, GS-5734 100 mg/kg i.p., 2 h, average n=5, read-out: Concentration in heart
MEASURED_METRIC: concentration at 2 h (ng/g)

1) CCC(CC)COC(=O)[C@H](C)N[P@](=O)(OC[C@H]1O[C@@](C#N)(c2ccc3c(N)ncnn23)[C@H](O)[C@@H]1O)Oc1ccccc1 [Remdesivir, reference compound] = 5.12

---

experiment: Biodistribution and metabolism of remdesivir in rats (UHPLC-MS/MS); type: in vivo, Sprague-Dawley rats; details: male, Sprague-Dawley, rat, in vivo, 100 mg/kg, GS-5734 100 mg/kg i.p., 2 h, average n=5, read-out: Concentration in epididymis
MEASURED_METRIC: concentration at 2 h (ng/g)

1) CCC(CC)COC(=O)[C@H](C)N[P@](=O)(OC[C@H]1O[C@@](C#N)(c2ccc3c(N)ncnn23)[C@H](O)[C@@H]1O)Oc1ccccc1 [Remdesivir, reference compound] = 42.1

---

Concentration in lung for assorted molecules
test: Biodistribution and metabolism of remdesivir in rats (UHPLC-MS/MS); format: in vivo, Sprague-Dawley rats; details: rat, GS-5734 100 mg/kg i.p., 6 h, average n=5
MEASURED_METRIC: Concentration in lung (ng/g tissue)

1. N#C[C@@]1(c2ccc3c(N)ncnn23)O[C@H](COP(=O)(O)OP(=O)(O)O)[C@@H](O)[C@H]1O [Nuc-DP] = 118.94
2. N#C[C@@]1(c2ccc3c(N)ncnn23)O[C@H](COP(=O)(O)OP(=O)(O)OP(=O)(O)O)[C@@H](O)[C@H]1O [Nuc-TP] = 2057.66
3. N#C[C@@]1(c2ccc3c(N)ncnn23)O[C@H](COP(=O)(O)O)[C@@H](O)[C@H]1O [Nuc-MP] = 309.88
4. C[C@H](NP(=O)(O)OC[C@H]1O[C@@](C#N)(c2ccc3c(N)ncnn23)[C@H](O)[C@@H]1O)C(=O)O [Ala-Nuc] = 73.42
